assay-remarks: Semi-thermodynamic solubility
Type: physicochemical
run-conditions: PBS, aqueous buffer, thermodynamic from solid, Room Temp; Overnight; LC-MSMS; read-out: Solubility Replicate 2
assay-endpoint: solubility (µM)

O=[N+]([O-])c1c(Cl)cc(O)c2c1C1C=CCC1C(c1ccc(Cl)cc1)N2 (centres unmarked) = 9.33

a: N#Cc1c(Cl)cc(O)c2c1C1C=CCC1C(c1ccc(Cl)cc1)N2 (centres unmarked)
b: CC1(C)Cc2cccc(OCC(=O)Nc3nc4ccccc4s3)c2O1
c: COC(=O)C1=C(C)NC(C)=C(C(=O)OCCN(C)Cc2ccccc2)C1c1cccc([N+](=O)[O-])c1 (centres unmarked) [nicardipine, reference compound]
Request: List by increasing solubility. Returns: the labels arranged in the requested order.
Result: b, a, c

====

Property: MEC; scope: individual molecules
Tested on: HepG2 human hepatocellular carcinoma cells
assay-remarks: Cell viability (cytotoxicity, MTT) using HepG2
Assay type: cell-based
run-conditions: 72h, 3 replicas, NR = No response (Summary sheet)
Give the quantity in µM, number only.

Oc1cc(Cl)cc2c1NC(c1ccccc1)C1CC=CC21 (stereo not shown) = 14.2
CC1(C)Cc2cccc(OCC(=O)Nc3nc4ccccc4s3)c2O1 = 42.6
CN(C)CCCN1c2ccccc2Sc2ccc(Cl)cc21 [Chlorpromazine, reference compound] = 10.7
O=[N+]([O-])c1c(Cl)cc(O)c2c1C1C=CCC1C(c1ccc(Cl)cc1Cl)N2 (stereo not shown) = 6.79

Request: Which MEC is reported for this molecule? O=[N+]([O-])c1c(Cl)cc(O)c2c1C1C=CCC1C(c1ccc(Cl)cc1)N2 (stereo not shown)
Result: 4.38

Request: Query N#CC(C#N)=NNc1cccc(Cl)c1 [carbonyl cyanide 3-chlorophenylhydrazone, reference compound] next
Result: 4.22

====

assay-remarks: CaCo-2 permeability (bi-directional)
run-conditions: human, Caco-2, pH 7.4
assay-endpoint: efflux ratio at 120 min, 10 μM

Worked set:
O=[N+]([O-])c1c(Cl)cc(O)c2c1C1C=CCC1C(c1ccc(Cl)cc1)N2 (stereo not shown) [Compound 7] = 2.84
Cc1[nH]nc(-c2ccc(O)c(C)c2O)c1-c1nc2ccccc2s1 [Compound E12] = 5.13
CC1(C)Cc2cccc(OCC(=O)Nc3nc4ccccc4s3)c2O1 [Compound E25] = 4
COc1ncc(C(C)NC2CC(C)(C)NC(C)(C)C2)cc1Cl (stereo not shown) [Compound 3.3] = 8.01
O=C(O)c1c(Cl)cc(O)c2c1C1C=CCC1C(c1ccc(Cl)cc1)N2 (stereo not shown) [Compound 13] = 1.5

I: Oc1cc(Cl)cc2c1NC(c1ccccc1)C1CC=CC21 (stereo not shown) [Compound 11]
II: CC(C)C[C@@H](CO)NCc1cc(O)c2cc(F)ccc2n1 [Compound 3.14]
Request: Between I and II , which one shows the larger efflux ratio at 120 min, 10 μM value? Answer by stating the label of the chosen item.
Result: I
(I: 36.9, II: 8.64)

====

assay-remarks: In vivo bioavailability / PK after 1 mg/kg IV or 10 mg/kg PO
Parameters: species or system Male ICR mice
run-conditions: male, ICR, mouse, plasma, iv, 1 mg/kg, mg/kg IV, time 2 h, mouse#1-3; read-out: in vivo PK raw, level per mouse
assay-endpoint: concentration at 2 h (nM)
Field: numeric (nM). Do not append units.

Request: State the recorded concentration at 2 h for this entry: Cc1[nH]nc(-c2ccc(O)c(C)c2O)c1-c1nc2ccccc2s1
Result: 5.93

====

assay-remarks: Microsomal metabolic stability
Type: in vitro ADME
run-conditions: human, pooled liver microsomes, pH 7.4, liver microsomes; read-out: t1/2 of clearance (CL1/2), in vitro
assay-endpoint: half-life at 1 µM (min)

O=[N+]([O-])c1c(Cl)cc(O)c2c1C1C=CCC1C(c1ccc(Cl)cc1)N2 (stereo not drawn) = 3.62

A: Cc1[nH]nc(-c2ccc(O)c(C)c2O)c1-c1nc2ccccc2s1
B: CC(C)C[C@@H](CO)NCc1cc(O)c2cc(F)ccc2n1
Request: In terms of reported half-life at 1 µM, does A or B have the smaller number? Field: selected label. Fill in the label of the entry you choose.
Result: A

====

assay-remarks: CaCo-2 permeability (bi-directional)
run-conditions: human, Caco-2, Mean Papp A-B, Caco-2; summary sheet
assay-endpoint: Papp A→B at 120 min, 10 μM (nm/s)

Examples from the recorded data:
COc1ncc(C(C)NC2CC(C)(C)NC(C)(C)C2)cc1Cl (stereo not shown) = 47.9
Cc1[nH]nc(-c2ccc(O)c(C)c2O)c1-c1nc2ccccc2s1 = 45.3
Oc1cc(Cl)cc2c1NC(c1ccccc1)C1CC=CC21 (stereo not shown) = 3
O=[N+]([O-])c1c(Cl)cc(O)c2c1C1C=CCC1C(c1ccc(Cl)cc1)N2 (stereo not shown) = 35.9
CC(C)C[C@@H](CO)NCc1cc(O)c2cc(F)ccc2n1 = 47

A: O=C(O)c1c(Cl)cc(O)c2c1C1C=CCC1C(c1ccc(Cl)cc1)N2 (stereo not shown)
B: CC1(C)Cc2cccc(OCC(=O)Nc3nc4ccccc4s3)c2O1
Request: Form field 'greater Papp A→B at 120 min, 10 μM' accepts A or B ; which applies? Give the chosen item's label as your response.
Result: A

====

assay-remarks: CaCo-2 permeability (bi-directional)
run-conditions: human, Caco-2, pH 7.4, Papp A2B Replicate 1, HBSS/HBSS; pH 7.4/7.4
assay-endpoint: Papp A→B at 120 min, 10 μM (×10⁻⁶ cm/s)

Look over these answered cases.
Oc1cc(Cl)cc2c1NC(c1ccccc1)C1CC=CC21 (stereo not shown) [Compound 11] = 0.3
O=[N+]([O-])c1c(Cl)cc(O)c2c1C1C=CCC1C(c1ccc(Cl)cc1)N2 (stereo not shown) [Compound 7] = 3.41
O=C(O)c1c(Cl)cc(O)c2c1C1C=CCC1C(c1ccc(Cl)cc1)N2 (stereo not shown) [Compound 13] = 1.02

A: Cc1[nH]nc(-c2ccc(O)c(C)c2O)c1-c1nc2ccccc2s1 [Compound E12]
B: CC1(C)Cc2cccc(OCC(=O)Nc3nc4ccccc4s3)c2O1 [Compound E25]
Request: // task: argmin of Papp A→B at 120 min, 10 μM over [ A , B ] Label of pick, please.
Result: B
(B: 1.12 ×10⁻⁶ cm/s, A: 3.77 ×10⁻⁶ cm/s)

====

Tested on: DAOY cells
assay-remarks: Spheroid invasion assay (SIA), bFGF-induced collagen I invasion
Type: cell-based, human
run-conditions: Homo sapiens, Daoy, DAOY cells; n = 3 technical replicas; read-out: EC50 for the inhibition of bFGF-induced collagen I invasion
pEC50: −log10 of the molar value.
assay-endpoint: pEC50

Cc1[nH]nc(-c2ccc(O)c(C)c2O)c1-c1nc2ccccc2s1 [Compound E12] = 4.74
CC(C)C[C@@H](CO)NCc1cc(O)c2cc(F)ccc2n1 [Compound 3.14] = 5.23
CCN1CCN(c2ccc(Nc3cc(N(C)C(=O)Nc4c(Cl)c(OC)cc(OC)c4Cl)ncn3)cc2)CC1 [BGJ398, reference compound] = 6.33

P: O=[N+]([O-])c1c(Cl)cc(O)c2c1C1C=CCC1C(C1CC=CCC1)N2 (stereo not drawn) [Compound 3.18]
Q: CC1(C)Cc2cccc(OCC(=O)Nc3nc4ccccc4s3)c2O1 [Compound E25]
R: COc1ncc(C(C)NC2CC(C)(C)NC(C)(C)C2)cc1Cl (stereo not drawn) [Compound 3.3]
Request: Order these by pEC50, descending, and give the full ranking. Form entry: ranked labels (order as requested).
Result: P, Q, R
(P: 5.89, Q: 5.12, R: 4.84)

====

assay-remarks: In vivo bioavailability / PK after 1 mg/kg IV or 10 mg/kg PO
Set-up: species or system Male ICR mice
run-conditions: male, ICR, mouse, plasma; 1 mg/kg, IV
assay-endpoint: MRT (min)

O=[N+]([O-])c1c(Cl)cc(O)c2c1C1C=CCC1C(c1ccc(Cl)cc1)N2 (stereo not drawn) = 17.4

P: Cc1[nH]nc(-c2ccc(O)c(C)c2O)c1-c1nc2ccccc2s1
Q: CC(C)C[C@@H](CO)NCc1cc(O)c2cc(F)ccc2n1
Request: Which of the two gives a bigger number for MRT: P or Q ? Record your answer as the label of the chosen record.
Result: Q
(Q: 31.2 min, P: 6.6 min)

====

assay-remarks: In vivo bioavailability / PK after 1 mg/kg IV or 10 mg/kg PO
Parameters: species or system Male ICR mice
run-conditions: male, ICR, mouse, plasma, iv, 1 mg/kg, mg/kg IV, time 8 h, mouse#1-3; read-out: in vivo PK raw, level per mouse
assay-endpoint: concentration at 8 h (nM)
Number in nM, nothing else.

Request: May I ask what concentration at 8 h has been recorded for Cc1[nH]nc(-c2ccc(O)c(C)c2O)c1-c1nc2ccccc2s1 [Compound E12] ?
Result: 0

====

Listed next: entries and their corresponding AC50 at 72 h.
assay-remarks: Cell viability (cytotoxicity, MTT) using HepG2
Type: cell-based, human
run-conditions: human, HepG2 cells, 72h, 3 replicas, NR = No response (Summary sheet), read-out: AC50
Report as a plain number; the unit µM is understood.

CN(C)CCCN1c2ccccc2Sc2ccc(Cl)cc21 [Chlorpromazine, reference compound] = 12.9

Request: Quick one: AC50 at 72 h for N#CC(C#N)=NNc1cccc(Cl)c1 [carbonyl cyanide 3-chlorophenylhydrazone, reference compound] ?
Result: 6.66

The reported numbers originate from paper PMC10060354.
